Attribution: patent US20250297029A1

Biological target: T1, GPC3 (UniProt P51654 25-559, limits assumed)
T1 construct: also called antigen GPC3; Glypican 3
T1 sequence (P51654 25-559 limits assumed): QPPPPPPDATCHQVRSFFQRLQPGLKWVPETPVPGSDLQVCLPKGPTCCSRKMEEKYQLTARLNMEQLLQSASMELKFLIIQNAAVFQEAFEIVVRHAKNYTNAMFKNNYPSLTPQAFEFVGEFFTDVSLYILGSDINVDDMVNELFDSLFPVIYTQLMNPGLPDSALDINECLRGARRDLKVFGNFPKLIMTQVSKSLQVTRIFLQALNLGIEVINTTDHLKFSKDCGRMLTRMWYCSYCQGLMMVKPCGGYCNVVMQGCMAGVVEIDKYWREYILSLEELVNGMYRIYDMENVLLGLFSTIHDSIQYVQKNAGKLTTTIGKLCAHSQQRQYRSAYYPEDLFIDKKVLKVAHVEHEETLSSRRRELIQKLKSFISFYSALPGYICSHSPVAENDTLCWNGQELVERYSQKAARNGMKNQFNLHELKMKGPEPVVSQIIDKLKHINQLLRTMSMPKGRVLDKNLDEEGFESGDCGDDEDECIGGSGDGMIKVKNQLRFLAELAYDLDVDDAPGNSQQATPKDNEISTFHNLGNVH
Test: SPR (Biacore T200); scFv-Fc captured by anti-human Fc pAb, GPC3 10-320 nM in flow
readoutType: kon (M⁻¹ s⁻¹)
Answers are plain numbers, in M⁻¹ s⁻¹.

Batch request: kon per item, same order as input.
1. VL1.M2-VH2.M6 humanized scFv (scFv, not shown: a dimerising Fc or GST, Crude scFv with Fc tag from HEK293 supernatant) scFv: DIVMTQTPLSLSVTPGQPASISCRSSQSLVHSNGNTYLHWYLQKPGQSPQLLIYKVSSRFSGVPDRFSGSGSGTDFTLKISRVEAEDVGVYYCSQNTHVPPTFGQGTKVEIKGGGGSGGGGSGGGGSQVQLVQSGAEVKKPGASVKVSCKASGYTFTSYEMHWVRQAPGQGLEWMGALDPKTGDTAYSQKFQGRVTLTADTSTSTVYMELSSLRSEDTAVYYCTRFYSYTYWGQGTLVTVSS
2. VL1-VH2.M6 humanized scFv (scFv, not shown: a dimerising Fc or GST, Crude scFv with Fc tag from HEK293 supernatant) scFv: DIVMTQTPLSLSVTPGQPASISCRSSQSLVHSNGNTYLHWYLQKPGQSPQLLIYKVSNRFSGVPDRFSGSGSGTDFTLKISRVEAEDVGVYYCSQNTHVPPTFGQGTKVEIKGGGGSGGGGSGGGGSQVQLVQSGAEVKKPGASVKVSCKASGYTFTSYEMHWVRQAPGQGLEWMGALDPKTGDTAYSQKFQGRVTLTADTSTSTVYMELSSLRSEDTAVYYCTRFYSYTYWGQGTLVTVSS

Reply:
1: 190000; 2: 190000
